Recorded values, source a protein production outcome set (Wang et al. 2014).

Test: label from the status in PepcDB records
Endpoint: protein production

[[record]]
monomer_sequence = "MPFATNGAPYYEQLVMQIKQQIVQEVLRPGDQLPSIRAMASEMHLNPNTVSKAYQILEHQRAVYTVKGRGTFVSESSQIATDSNAVDDLQTRLQSLLTEAQFLGISAQQVQAWVTTAYQKGESRDEYPS"
test_value = "failed"

[[record]]
monomer_sequence = "MKNVKFIKKSESVIGLWLPILVILILFAFLVAESVIMKDIILSNSVVALATAIMASAALVTILVSNRQVQLMARQQRLKAIEDRLEKFYIPLIKAFSSYVYTAQTEDEIETIITCRRYLAGNNLLRVLPMHFKFKADKIAGSANWTFYAKEDFEQWKEALDVLWEEFLEVLKEYYTLSGTEISLPEKPDWLIGYK"
test_value = "failed"

[[record]]
monomer_sequence = "MDLFNLLDGITFWHWLAFGFVLLAVELLGTAGYFLWLGLSALLVGALLAVLPFGWQLQWLSFATFSLLTTWLWWRRQWSRDKQDDQTRDLNQKYKQLIGRSVILEEDFSIGLNRIRIADTTWSAQCEQNIRAGTRVKIVAIDGIILIVEPISE"
test_value = "failed"

